Consider the following Kd values measured on lymphocyte-specific tyrosine protein kinase (LCK) (Homo sapiens (Human)).
Sequence (P06239 whole entry): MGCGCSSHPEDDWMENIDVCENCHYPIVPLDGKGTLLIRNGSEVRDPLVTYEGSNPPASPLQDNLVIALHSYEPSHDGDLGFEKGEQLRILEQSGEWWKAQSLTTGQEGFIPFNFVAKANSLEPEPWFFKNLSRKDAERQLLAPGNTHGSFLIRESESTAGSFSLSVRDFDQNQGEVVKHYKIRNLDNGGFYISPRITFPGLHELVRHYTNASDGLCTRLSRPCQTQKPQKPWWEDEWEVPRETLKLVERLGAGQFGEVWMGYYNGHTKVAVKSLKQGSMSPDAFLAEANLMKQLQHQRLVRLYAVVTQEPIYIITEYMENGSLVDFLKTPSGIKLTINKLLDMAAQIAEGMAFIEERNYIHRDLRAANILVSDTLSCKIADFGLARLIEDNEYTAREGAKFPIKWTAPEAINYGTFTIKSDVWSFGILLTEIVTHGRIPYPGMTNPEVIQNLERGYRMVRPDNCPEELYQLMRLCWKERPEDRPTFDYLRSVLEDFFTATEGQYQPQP
reported-property: Kd (µM)

                      smiles_representation   u  qual  endpoint_result
0  Cn1cnc2ccc(Nc3c(Cl)ccc(NS(=O)(=O)N4CCCC4)c3F)cc2c1=O  µM     =               12
1  CN(C)S(=O)(=O)Nc1ccc(Cl)c(Nc2ccc3ncn(C)c(=O)c3c2)c1F  µM     =             10.4
2  CCCS(=O)(=O)Nc1ccc(F)c(Oc2ccc3ncn(C)c(=O)c3c2)c1C#N  µM     >               40

# credit: patent US20240197735A1
